# Tested on: MAGL (Mus musculus, UniProt O35678)
# Sequence (O35678 whole entry): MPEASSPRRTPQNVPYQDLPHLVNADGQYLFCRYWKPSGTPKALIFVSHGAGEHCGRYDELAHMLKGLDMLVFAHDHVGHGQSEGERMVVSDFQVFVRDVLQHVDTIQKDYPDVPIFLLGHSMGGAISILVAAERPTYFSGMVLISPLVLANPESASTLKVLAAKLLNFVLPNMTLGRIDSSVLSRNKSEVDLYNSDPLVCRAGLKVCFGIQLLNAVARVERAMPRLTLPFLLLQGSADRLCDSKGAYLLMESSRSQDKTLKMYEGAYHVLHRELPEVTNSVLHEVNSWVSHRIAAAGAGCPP
# Protocol text: In vitro competitive activity-based protein profiling (FP-Rh), mouse MAGL
# Assay type: biochemical
# Parameters: from tissue; host or cells: mouse brain membrane fraction
# Condition context: Table 1, mouse proteome, 30 min preincubation at 37° C.
Parameter measured: IC50

// known answers, use as guide
{"Compound": "CC1(C)CC(=O)N(OC(=O)N2CCN(C(c3ccc(Cl)cc3)c3ccc(Cl)cc3)CC2)C1=O", "IC50": "1000 to 10000 nM"}
{"Compound": "O=C(NC1CCCc2ccccc21)ON1C(=O)CCC1=O (stereo not drawn)", "IC50": "> 10000 nM"}
{"Compound": "O=C(C1CCCCN1C(=O)ON1C(=O)CCC1=O)N1CCOCC1 (stereo not drawn)", "IC50": "> 10000 nM"}
{"Compound": "COc1ccc(N2CCN(C(=O)ON3C(=O)c4ccccc4C3=O)CC2)cc1", "IC50": "> 10000 nM"}

Kindly note the recorded IC50 for CC1CCCCN1C(=O)ON1C(=O)CCC1=O (stereo not drawn) , which is > 10000 nM

Kindly note the recorded IC50 for O=C(ON1C(=O)CCC1=O)N1CCN(Cc2ccccc2Oc2ccccc2)CC1 , which is < 100 nM

----------
# Tested on: UniProt:Q8R2Y0
# Sequence (Q8R2Y0 1-336): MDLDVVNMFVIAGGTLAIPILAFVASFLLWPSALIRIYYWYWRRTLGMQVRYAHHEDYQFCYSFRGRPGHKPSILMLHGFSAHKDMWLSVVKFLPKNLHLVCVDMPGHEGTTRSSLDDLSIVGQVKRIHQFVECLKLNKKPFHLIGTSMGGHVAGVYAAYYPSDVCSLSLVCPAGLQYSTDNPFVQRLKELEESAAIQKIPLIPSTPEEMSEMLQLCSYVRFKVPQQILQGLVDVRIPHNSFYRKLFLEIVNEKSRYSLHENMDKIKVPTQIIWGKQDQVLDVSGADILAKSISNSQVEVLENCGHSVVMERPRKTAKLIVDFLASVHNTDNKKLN
# Protocol text: In vitro competitive activity-based protein profiling (FP-Rh), mouse ABHD6
# Type: biochemical
# Parameters: from tissue; host or cells: mouse brain membrane fraction
# Condition context: Table 2, mouse proteome, 30 min preincubation at 37° C.
Parameter measured: IC50

Given the molecule Cc1nn(-c2ccccc2)cc1CN1CCN(C(=O)ON2C(=O)CCC2=O)CC1 and test system UniProt:Q8R2Y0, the measured IC50 is 100 to 1000 nM

Given the molecule COC(=O)c1cc(CN2CCN(C(=O)ON3C(=O)CCC3=O)CC2)ccc1N1CCOCC1 and test system UniProt:Q8R2Y0, the measured IC50 is 1000 to 10000 nM

Given the molecule O=C(ON1C(=O)CCC1=O)N1CCN(Cc2ccc(Cl)cc2-n2cc(Cl)cn2)CC1 and test system UniProt:Q8R2Y0, the measured IC50 is 100 to 1000 nM

Given the molecule O=C(ON1C(=O)CCC1=O)N1CCN(Cc2ccc(Cl)cc2N2CCCC2)CC1 and test system UniProt:Q8R2Y0, the measured IC50 is 100 to 1000 nM

Given the molecule O=C(ON1C(=O)CCC1=O)N1CCN(Cc2ccc(N3CCCC3)cc2OC(F)(F)F)CC1 and test system UniProt:Q8R2Y0, the measured IC50 is 100 to 1000 nM

Given the molecule Cc1c(CN2CCN(C(=O)ON3C(=O)CCC3=O)CC2)cccc1N1CCCCC1 and test system UniProt:Q8R2Y0, the measured IC50 is 100 to 1000 nM
